- Method Description: Minimum cytotoxic concentration in HeLa cell cultures
- Type: cell-based
- Test Parameters: human, HeLa cells
Items are presented alongside their recorded MCC.

{"Molecule": "Nc1ncnc2c1ccn2[C@@H]1O[C@H](CO)[C@@H](O)[C@H]1O [TUBERCIDIN]", "MCC": "> 0.4 µg/mL"}
{"Molecule": "CC(=O)Nc1ccn(C2OC(CO[Si](C)(C)C(C)(C)C)C(C#N)C2O[Si](C)(C)C(C)(C)C)c(=O)n1 (configuration not stated)", "MCC": "> 4 µg/mL"}
{"Molecule": "CC(C)(C)[Si](C)(C)OC[C@H]1O[C@@H](n2ccc(=O)[nH]c2=O)[C@H](O[Si](C)(C)C(C)(C)C)[C@H]1C#N", "MCC": "4 µg/mL"}
{"Molecule": "CC(C)(C)[Si](C)(C)OCC1OC(n2ccc(N)nc2=O)C(O[Si](C)(C)C(C)(C)C)C1C#N (configuration not stated)", "MCC": "> 4 µg/mL"}
{"Molecule": "CC(C)(C)[Si](C)(C)OC[C@H]1O[C@@H](n2cnc3c(N)ncnc32)[C@H](O[Si](C)(C)C(C)(C)C)[C@H]1C#N", "MCC": "> 100 µg/mL"}
{"Molecule": "N#C[C@@H]1[C@@H](O)[C@H](n2ccc(=O)[nH]c2=O)O[C@@H]1CO", "MCC": "> 400 µg/mL"}
{"Molecule": "Cc1cn([C@H]2C[C@@H](C#N)[C@@H](CO)O2)c(=O)[nH]c1=O", "MCC": "> 400 µg/mL"}
{"Molecule": "CC(C)(C)[Si](C)(C)OC[C@H]1O[C@@H](n2ccc(=O)[nH]c2=O)[C@H](O[Si](C)(C)C(C)(C)C)[C@@H]1C#N", "MCC": "> 40 µg/mL"}
{"Molecule": "Cc1cn(C2CC(C#N)C(CO[Si](C)(C)C(C)(C)C)O2)c(=O)[nH]c1=O (configuration not stated)", "MCC": "100 µg/mL"}
{"Molecule": "Cc1cn(C2OC(CO)C(C#N)C2O)c(=O)[nH]c1=O (configuration not stated)", "MCC": "> 400 µg/mL"}
{"Molecule": "N#C[C@H]1[C@@H](O)[C@H](n2cnc3c(N)ncnc32)O[C@@H]1CO", "MCC": "> 200 µg/mL"}
{"Molecule": "Cc1cn([C@H]2C[C@H](C#N)[C@@H](CO)O2)c(=O)[nH]c1=O", "MCC": "200 µg/mL"}
